Target: muscarinic binding site
Experiment: inhibition of specific binding at the muscarinic binding site
Protocol: The compounds were assayed at one or more concentrations in each binding assay.
pIC50: −log10 of the molar value. Counter-ions that a name gives are not always drawn.

COMPOUND	pIC50
CCOC(=O)C1CN(CC)CC=C1c1ccccc1C (stereo not drawn)	5.15
CCN1CCC(c2ccccc2)=C(C(=O)N(C)C)C1	5.05
COC(=O)C1CN(C)CC=C1c1ccccc1 (racemic)	5.44
COC(=O)C1=C(c2ccccc2)CCN(Cc2ccccc2)C1	5.10
CCN1CCC(c2ccccc2)=C(C(=O)NC2CCCC2)C1 [Example 47, monohydrochloride]	6.22
CCCCN1CC=C(c2ccccc2)C(C(=O)OCc2ccccc2)C1 (racemic) [Example 94, monohydrochloride]	5.00

These data points were gathered from patent US4745123A.
